System: RPMI-8226
METHOD SUMMARY: NCI tumour cell line growth inhibition, 48 h
The source made the active and inactive calls. No stated cut-off is given here; in the data, active = GI50 up to about 1.1 µM and inactive = higher.
Parameter call: string, one of active, inactive

IN: Tell me the recorded outcome of this test for COc1cc(C2c3cc4c(cc3[C@@H](Nc3ccc5c(c3)OCCO5)C3COC(=O)[C@H]23)OCO4)cc(OC)c1O (stereo partly specified) .
OUT: active

IN: Call for entry O=C(O)C(Cc1ccccc1)N1C(=O)N/C(=C\c2ccc(F)cc2)C1=O (stereo unspecified) :
OUT: inactive

IN: Identify the outcome logged in this assay for the compound shown: O=C1OC(c2ccccc2)=N/C1=C/NC(Cc1ccc(O)cc1)C(=O)O (stereo unspecified)
OUT: inactive

IN: State the result this test recorded for COc1cc(C2SCC(=O)N2c2cccc(Cl)c2)cc(OC)c1OC (stereo unspecified) .
OUT: inactive

IN: Please share the test call associated with `Cc1ncc(CSc2ccccc2N)c(CO)c1O` .
OUT: inactive

IN: // return assay outcome for Cc1nn(C(=O)c2ccccc2O)c2c1C(c1ccccc1)SC(=N)N2 (stereo unspecified)
OUT: inactive

----------
System: OVCAR-3
METHOD SUMMARY: NCI tumour cell line growth inhibition, 48 h
Calls of active or inactive are those of the source. No stated cut-off is given here; in the data, active = GI50 up to about 1.1 µM and inactive = higher.
Respond using exactly one of the listed classes: True for active, False for inactive

Use the examples below as a reference point.
{"MOLECULE": "CC(=O)CC[N+](C)(C)C", "LABEL": "False"}
{"MOLECULE": "O=C(NCCCNCCNC(=O)c1cc(-c2ccccc2)nc2ccccc12)c1cc(-c2ccccc2)nc2ccccc12", "LABEL": "False"}
{"MOLECULE": "CCOC(=O)c1c(Br)c(-c2ccc(OC)cc2)c(Br)n1C", "LABEL": "False"}
{"MOLECULE": "NC(=O)N=C(NCc1ccccc1)NCc1ccccc1", "LABEL": "False"}
{"MOLECULE": "COc1ccc(C2c3cc4c(cc3OC3(OC)COC(=O)C23)OCO4)c(OC)c1 (stereo not given)", "LABEL": "False"}
{"MOLECULE": "CCOC(=O)c1c(SCCN(CC)CC)n(-c2ccccc2)c(=S)n(-c2ccccc2)c1=O", "LABEL": "False"}
{"MOLECULE": "N#CC1C(=O)N(c2ccccc2)NC12OC(=O)c1ccncc12 (stereo not given)", "LABEL": "False"}
{"MOLECULE": "COc1cc(-c2c3c(cc4c2OCO4)[C@@H](Nc2ccc4c(c2)Cc2cc(N[C@@H]5c6cc7c(cc6C(c6cc(OC)c(O)c(OC)c6)[C@H]6C(=O)OC[C@H]56)OCO7)ccc2-4)[C@H]2COC(=O)[C@@H]2C3)cc(OC)c1O (stereo not given in full)", "LABEL": "False"}

Could you now look at the following molecule, please?
IN: What classification did COc1cc2c(c(O)c1OC)C(=O)C1CCC(=O)N1C2c1cccc2ccccc12 (stereo not given) end up with in this test?
OUT: False

----------
GI50: recorded values
Test system: KM12
METHOD SUMMARY: NCI tumour cell line growth inhibition, 48 h
Activity calls are given as the source filed them. No stated cut-off is given here; in the data, active = GI50 up to about 1.1 µM and inactive = higher.

Sample answers from the record:
{"MOLECULE": "O=C(O)CCCNc1ncc2c(n1)-c1ccccc1OC2", "GI50": "> 100 µM (inactive)"}
{"MOLECULE": "Cc1cc2c(cc1C)[n+]([O-])c(C(=O)/C=C/c1ccccc1Cl)c(C)[n+]2[O-]", "GI50": "31.8 µM (inactive)"}
{"MOLECULE": "O=C(NCCCNCCNC(=O)c1cc(-c2ccccc2)nc2ccccc12)c1cc(-c2ccccc2)nc2ccccc12", "GI50": "1.91 µM (inactive)"}
{"MOLECULE": "C=CCc1cccc2cc(C(=O)NCc3ccccc3)c(=N)oc12", "GI50": "34.4 µM (inactive)"}
{"MOLECULE": "C1CCC2C(C1)CCCC2NC1=NCCO1 (stereo unspecified)", "GI50": "> 100 µM (inactive)"}

Note: attention shifts to another entry.
Lab book: GI50 of `Cn1c(N)cc(=O)nc1N` noted as > 100 µM (inactive)

----------
# Lookup of reported GI50 keyed by entry
Tested on: NCI/ADR-RES
METHOD SUMMARY: NCI tumour cell line growth inhibition, 48 h
Calls of active or inactive are those of the source. No stated cut-off is given here; in the data, active = GI50 up to about 1.1 µM and inactive = higher.

Here's what some known entries look like.
{"MOLECULE": "Cc1cn(C2CC(O)C(Cn3nncc3Cn3nc(Br)c(=O)[nH]c3=O)O2)c(=O)[nH]c1=O (stereo not drawn)", "TESTED SYSTEM": "NCI/ADR-RES", "MEASUREMENT KIND": "GI50", "MEASURED RESULT": "> 100 µM (inactive)"}
{"MOLECULE": "c1csc(-c2ccsc2-c2cccs2)c1", "TESTED SYSTEM": "NCI/ADR-RES", "MEASUREMENT KIND": "GI50", "MEASURED RESULT": "43.3 µM (inactive)"}

Could you now consider this next molecule?
Bench note, NCI/ADR-RES: `COc1ccc(CCCNC(=O)Cc2cc(OC)c(OC)cc2CO)cc1OC` , GI50 reads > 100 µM (inactive)

----------
Tested on: UACC-257
METHOD SUMMARY: NCI tumour cell line growth inhibition, 48 h
The source made the active and inactive calls. No stated cut-off is given here; in the data, active = GI50 up to about 1.1 µM and inactive = higher.
Please reply with one of these outcomes: active, inactive

IN: Assay result, entry `CN(C)c1ccc(-c2nc(-c3cc4c(ccc5ccccc54)oc3=O)cs2)cc1` — outcome?
OUT: inactive

IN: # lookup: test call for `Oc1cccc(/C=N/N=c2/[nH][nH]/c(=N/N=C/c3cccc(O)c3)c3ccccc23)c1`
OUT: inactive

IN: I would be grateful if you could indicate the recorded call for `COc1cc(C(=O)C/C(CCC(=O)Nc2ccccc2[N+](=O)[O-])=N\NC(=O)CC#N)ccc1O` .
OUT: inactive

IN: Entry `CN(C)CCNC(=O)c1cccc2nc3ccc4ccccc4c3nc12` : call = ?
OUT: active

----------
System: NCI-H226
METHOD SUMMARY: NCI tumour cell line growth inhibition, 48 h
The source made the active and inactive calls. Rule as the data show it: active = GI50 up to about 1.1 µM and inactive = higher.
The following compounds are shown together with reported GI50 values.

Field: example entries. Status: answers known.
{"COMPOUND": "COc1ccc([C@H]2CC(=O)C[C@H](c3ccc(OC)cc3)C23C(=O)c2ccccc2C3=O)cc1", "GI50": "6.11 µM (inactive)"}
{"COMPOUND": "O=[N+]([O-])C(/C(Cl)=C(/Cl)N1CCOCC1)=C1\\Nc2ccccc2O1", "GI50": "> 100 µM (inactive)"}
{"COMPOUND": "N#CC(c1ccccc1)N(CCc1ccccc1)C(=O)c1ccccc1 (stereo not given)", "GI50": "> 58.7 µM (inactive)"}
{"COMPOUND": "COC(=O)[C@H](Cc1c[nH]c2ccccc12)NC(=O)c1ccc(CNC(=O)/C=C/c2cccc(Oc3ccccc3)c2)cc1", "GI50": "> 100 µM (inactive)"}
{"COMPOUND": "Nc1nc(N)c2nc(CNc3ccc(C(=O)NC(CCC(=O)O)C(=O)O)cc3F)cnc2n1 (stereo not given)", "GI50": "> 100 µM (inactive)"}

Consider now this further compound.
In plain terms, C[C@@H]1C(O)CC[C@H](C)C12CC=CC2=O (stereo not given in full) has a documented GI50 of > 100 µM (inactive)

----------
System: IGROV-1
METHOD SUMMARY: NCI tumour cell line growth inhibition, 48 h
Activity calls are given as the source filed them. Rule as the data show it: active = GI50 up to about 1.1 µM and inactive = higher.
MEASUREMENT KIND: GI50

{"COMPOUND": "Cc1cc(=O)oc2cc3oc(N(C)c4ccccc4)nc(=O)c3cc12", "TESTED SYSTEM": "IGROV-1", "GI50": "> 100 µM (inactive)"}
{"COMPOUND": "COc1ccc(/C=C(/C#N)C(N)=O)c(OC)c1", "TESTED SYSTEM": "IGROV-1", "GI50": "> 100 µM (inactive)"}
{"COMPOUND": "COc1ccc2c(c1)/C(=C(\\C(Cl)=C(Cl)Cl)[N+](=O)[O-])N2", "TESTED SYSTEM": "IGROV-1", "GI50": "> 100 µM (inactive)"}
{"COMPOUND": "COc1ccc2c(c1)C1Oc3ccccc3CC1(O)CO2 (stereo unspecified)", "TESTED SYSTEM": "IGROV-1", "GI50": "> 100 µM (inactive)"}
{"COMPOUND": "COC(=O)C1[C@H](c2ccc3c(c2)OCO3)OC(=O)[C@]1(C(=O)OC)C(=O)c1ccc(OC)c(OC)c1 (stereo partly specified)", "TESTED SYSTEM": "IGROV-1", "GI50": "42.3 µM (inactive)"}

Okay, next one:
For record `O=C(/C=N/O)Nc1ccc(Cl)c(I)c1` the listed GI50 is 8.61 µM (inactive)

----------
Some compounds, each annotated with its measured GI50.
Tested on: OVCAR-4
METHOD SUMMARY: NCI tumour cell line growth inhibition, 48 h
Active and inactive are the calls of the source. Rule as the data show it: active = GI50 up to about 1.1 µM and inactive = higher.

Completed entries (count: 5):
{"COMPOUND": "CC(C)[C@@H]1NC(=O)[C@@H]2N=C(O[C@H]2C)[C@H](C(C)C)NC(=O)C2N=C1O[C@H]2C", "MEASURED RESULT": "> 100 µM (inactive)"}
{"COMPOUND": "CN(C)CC[N+](C)(C)[BH2-]C(O)O", "MEASURED RESULT": "> 100 µM (inactive)"}
{"COMPOUND": "COc1ccc(CSc2ccccc2Cn2cccc2)cc1OC", "MEASURED RESULT": "39.8 µM (inactive)"}
{"COMPOUND": "CC1=NN2CCC(=O)N=C2S1", "MEASURED RESULT": "> 100 µM (inactive)"}
{"COMPOUND": "COc1ccc(/N=N/c2c(C)c(C#N)c(=S)n(C3OC(COC(C)=O)C(OC(C)=O)C(OC(C)=O)C3OC(C)=O)c2-c2ccccc2)cc1 (stereo not given)", "MEASURED RESULT": "3.15 µM (inactive)"}

Record `Sc1nnc(COc2ccc(Cl)cc2Cl)[nH]1` has OVCAR-4 GI50 equal to > 100 µM (inactive)

Readout GI50 for CC(C(=O)O)/C(=C\c1ccc2c(c1)OCO2)C(=O)O (stereo not given) , test system OVCAR-4, was > 100 µM (inactive)

Measured on OVCAR-4, `COc1ccc(CCCNC(=O)Cc2cc(OC)c(OC)cc2CO)cc1OC` has a documented GI50 of > 100 µM (inactive)

Result for COc1nc2c(c(=O)n1C)N(C(C)=O)C1C(N2)OCC(OC(C)=O)C1OC(C)=O (stereo not given) , tested on OVCAR-4, GI50: > 10 µM (inactive)

Observed GI50, OVCAR-4, COc1ccc2c3c1O[C@H]1C(=O)C=CC4(n5[nH]c(=O)n(-c6ccccc6)c5=O)C(C2)N(C)CCC314 (stereo not given in full) : > 100 µM (inactive)

Values compiled from ChEMBL document CHEMBL1201862.
